Recorded viability, T/C by entry
Tested on: HOP-62 complex spheroids with HUVEC/MSC, viability
test-summary: Anticancer human tumor HOP-62 cell line growth inhibition [RAS]
recorded-conditions: second compound 0.00949 µM; first compound 0.01 µM; active compounds read low
Description: RAS pathway inhibitors in Combinations in Complex Spheroids A high-throughput screen of multi-cell type tumor spheroids was designed to identify active combinations of RAS pathway inhibitors and targeted small molecules. Complex spheroids include a stromal component modeled by human endothelial cells (HUVEC) and fibroblasts modeled by human mesenchymal stem cells (MSCs). […] Compounds. […] If the clinical Cmax for an agent had not been determined, the highest concentration tested was 10 microM. […]
Field format: number, assumed %, no unit text.

compound: Nc1ccn(C2OC(CO)C(O)C2(F)F)c(=O)n1 (configuration not stated) + CCn1c(-c2cc(N3CCN(C)CC3)cnc2C(C)OC)c2c3cc(ccc31)-c1csc(n1)CC(NC(=O)C1CC1C)C(=O)N1CCCC(N1)C(=O)OCC(C)(C)C2
viability, T/C / %: 52.5

Please state recorded viability, T/C (tested on HOP-62 complex spheroids with HUVEC/MSC, viability) of O=C(c1ccc(F)c(F)c1Nc1ccc(I)cc1F)N1CC(O)([C@@H]2CCCCN2)C1 + CCn1c(-c2cccnc2C(C)OC)c2c3cc(ccc31)N1CCOC(CC(NC(=O)C(C(C)C)N(C)C(=O)C3(F)CCN(C(=O)C#CC(C)(C)N(C)C)CC3)C(=O)N3CCCC(N3)C(=O)OCC(C)(C)C2)C1
75.6

----------
Test system: HOP-62 complex spheroids with HUVEC/MSC, viability
test-summary: Anticancer human tumor HOP-62 cell line growth inhibition [RAS];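 also: spheroids exposed to agents for seven days before readout; 100% = DMSO vehicle control viability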
recorded-conditions: second compound 0.00316 µM; first compound 0.00316 µM; active compounds read low
Text: RAS pathway inhibitors in Combinations in Complex Spheroids A high-throughput screen of multi-cell type tumor spheroids was designed to identify active combinations of RAS pathway inhibitors and targeted small molecules. Complex spheroids include a stromal component modeled by human endothelial cells (HUVEC) and fibroblasts modeled by human mesenchymal stem cells (MSCs). […] Compounds. […] If the clinical Cmax for an agent had not been determined, the highest concentration tested was 10 microM. […]
measurement-label: viability, T/C

# annotated cases, reported viability, T/C shown
compound: CCN1CCN(Cc2ccc(Nc3ncc(F)c(-c4cc(F)c5nc(C)n(C(C)C)c5c4)n3)nc2)CC1 + C=CC(=O)N1CCN(c2nc(OCC3CCCN3C)nc3c(F)c(-c4nc(N)cc(C)c4C(F)(F)F)c(Cl)cc23)C(C)C1
viability, T/C: 87.7%

compound: O=C(c1ccc(F)c(F)c1Nc1ccc(I)cc1F)N1CC(O)([C@@H]2CCCCN2)C1 + C=CC(=O)N1CCN(c2nc(OCC3CCCN3C)nc3c(F)c(-c4nc(N)cc(C)c4C(F)(F)F)c(Cl)cc23)C(C)C1
viability, T/C: 77.1%

compound: CC(C)n1nc(-c2ccc3oc(N)nc3c2)c2c(N)ncnc21 + C=CC(=O)N1CCN(c2nc(OCC3CCCN3C)nc3c(F)c(-c4nc(N)cc(C)c4C(F)(F)F)c(Cl)cc23)C(C)C1
viability, T/C: 51.7%

compound: C=CC(=O)Nc1cc(Nc2nccc(-c3cn(C)c4ccccc34)n2)c(OC)cc1N(C)CCN(C)C + C=CC(=O)N1CCN(c2nc(OCC3CCCN3C)nc3c(F)c(-c4nc(N)cc(C)c4C(F)(F)F)c(Cl)cc23)C(C)C1
viability, T/C: 82.4%

Now consider a different compound.
Form field: reported viability, T/C of Nc1ccn(C2OC(CO)C(O)C2(F)F)c(=O)n1 (stereo not given) + C=CC(=O)N1CCN(c2nc(OCC3CCCN3C)nc3c(F)c(-c4nc(N)cc(C)c4C(F)(F)F)c(Cl)cc23)C(C)C1
71.5%

----------
Test system: HOP-62 complex spheroids with HUVEC/MSC, viability
test-summary: Anticancer human tumor HOP-62 cell line growth inhibition [RAS];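 also: spheroids exposed to agents for seven days before readout; 100% = DMSO vehicle control viability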
recorded-conditions: second compound 0.000949 µM; first compound 0.003 µM; active compounds read low
Recorded viability, T/C by entry
Field format: number, assumed %, no unit text.

# annotated cases, reported viability, T/C shown
compound: CCc1c2c(nc3ccc(O)cc13)-c1cc3c(c(=O)n1C2)COC(=O)[C@]3(O)CC + CCn1c(-c2cc(N3CCN(C)CC3)cnc2C(C)OC)c2c3cc(ccc31)-c1csc(n1)CC(NC(=O)C1CC1C)C(=O)N1CCCC(N1)C(=O)OCC(C)(C)C2
viability, T/C / %: 21.2

compound: CCc1c2c(nc3ccc(O)cc13)-c1cc3c(c(=O)n1C2)COC(=O)[C@]3(O)CC + CCn1c(-c2cccnc2C(C)OC)c2c3cc(ccc31)N1CCOC(CC(NC(=O)C(C(C)C)N(C)C(=O)C3(F)CCN(C(=O)C#CC(C)(C)N(C)C)CC3)C(=O)N3CCCC(N3)C(=O)OCC(C)(C)C2)C1
viability, T/C / %: 15.7

compound: CC1(C)CCC(Nc2ncc(C(F)(F)F)c(-c3c[nH]c4c(P(C)(C)=O)c(C#N)ccc34)n2)CN1 (centres undefined) + CCn1c(-c2cccnc2C(C)OC)c2c3cc(ccc31)N1CCOC(CC(NC(=O)C(C(C)C)N(C)C(=O)C3(F)CCN(C(=O)C#CC(C)(C)N(C)C)CC3)C(=O)N3CCCC(N3)C(=O)OCC(C)(C)C2)C1
viability, T/C / %: 94.5

Now consider a different compound.
Form field: reported viability, T/C of CC1(C)CCC(Nc2ncc(C(F)(F)F)c(-c3c[nH]c4c(P(C)(C)=O)c(C#N)ccc34)n2)CN1 (centres undefined) + CCn1c(-c2cc(N3CCN(C)CC3)cnc2C(C)OC)c2c3cc(ccc31)-c1csc(n1)CC(NC(=O)C1CC1C)C(=O)N1CCCC(N1)C(=O)OCC(C)(C)C2
95.9

----------
Recorded viability, T/C by entry
System: HOP-62 complex spheroids with HUVEC/MSC, viability
test-summary: Anticancer human tumor HOP-62 cell line growth inhibition [RAS];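 also: spheroids exposed to agents for seven days before readout; 100% = DMSO vehicle control viability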
recorded-conditions: second compound 0.0949 µM; first compound 0.01 µM; active compounds read low

# annotated cases, reported viability, T/C shown
molecule: C=CC(=O)Nc1cc(Nc2nccc(-c3cn(C)c4ccccc34)n2)c(OC)cc1N(C)CCN(C)C + CCn1c(-c2cc(N3CCN(C)CC3)cnc2C(C)OC)c2c3cc(ccc31)-c1csc(n1)CC(NC(=O)C1CC1C)C(=O)N1CCCC(N1)C(=O)OCC(C)(C)C2
measurement-label: viability, T/C
reported-result: 44.1%

molecule: Nc1ccn(C2OC(CO)C(O)C2(F)F)c(=O)n1 (centres undefined) + CCn1c(-c2cc(N3CCN(C)CC3)cnc2C(C)OC)c2c3cc(ccc31)-c1csc(n1)CC(NC(=O)C1CC1C)C(=O)N1CCCC(N1)C(=O)OCC(C)(C)C2
measurement-label: viability, T/C
reported-result: 38.4%

molecule: O=C(c1ccc(F)c(F)c1Nc1ccc(I)cc1F)N1CC(O)([C@@H]2CCCCN2)C1 + CCn1c(-c2cccnc2C(C)OC)c2c3cc(ccc31)N1CCOC(CC(NC(=O)C(C(C)C)N(C)C(=O)C3(F)CCN(C(=O)C#CC(C)(C)N(C)C)CC3)C(=O)N3CCCC(N3)C(=O)OCC(C)(C)C2)C1
measurement-label: viability, T/C
reported-result: 78.2%

Now consider a different molecule.
Form field: reported viability, T/C of CC(C)n1nc(-c2ccc3oc(N)nc3c2)c2c(N)ncnc21 + CCn1c(-c2cc(N3CCN(C)CC3)cnc2C(C)OC)c2c3cc(ccc31)-c1csc(n1)CC(NC(=O)C1CC1C)C(=O)N1CCCC(N1)C(=O)OCC(C)(C)C2
37.5%

----------
Tested on: HOP-62 complex spheroids with HUVEC/MSC, viability
test-summary: Anticancer human tumor HOP-62 cell line growth inhibition [RAS];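 also: spheroids exposed to agents for seven days before readout; 100% = DMSO vehicle control viability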
recorded-conditions: second compound 0.316 µM; first compound 10 µM; active compounds read low
measurement-label: viability, T/C (%)
Field format: number, assumed %, no unit text.

molecule: NC1c2ccccc2OC12CCN(c1cnc3c(N4CCCc5ncccc54)n[nH]c3n1)CC2 (stereo not drawn) + C#Cc1c(F)ccc2cc(O)cc(-c3ncc4c(N5CC6CCC(C5)N6)nc(OCC56CCCN5CC(F)C6)nc4c3F)c12
viability, T/C (%): 15.1
--
molecule: CC(Nc1ccc2c(c1)OCCn1cc(N3C(=O)OCC3C(F)F)nc1-2)C(N)=O (stereo not drawn) + C=CC(=O)N1CCN(c2nc(OCC3CCCN3C)nc3c(F)c(-c4nc(N)cc(C)c4C(F)(F)F)c(Cl)cc23)C(C)C1
viability, T/C (%): 16.8

Now consider a different molecule.
Form field: reported viability, T/C of C[C@@H](NC(=O)c1ncnc(N)c1Cl)c1ncc(C(=O)Nc2cc(C(F)(F)F)c(Cl)cn2)s1 + C=CC(=O)N1CCN(c2nc(OCC3CCCN3C)nc3c(F)c(-c4nc(N)cc(C)c4C(F)(F)F)c(Cl)cc23)C(C)C1
49.2
